Source: the supplement of paper PMC8728848

# TEST TARGET: GlcA3S(b1-3)Gal(b1-4)GlcNAc(b1-2)Man
# PROTOCOL DESCRIPTION: glycan array binding signal (z-score within array); higher = stronger binding
# STUDY CONDITIONS: glycan notation: IUPAC condensed, linker removed
Many of the other results were omitted from the sample, so the strongest signals are more common in it than they were.
QUANTITY NAME: glycan array binding signal (z-score)
# answer = number (no unit)

Determine from records and report glycan array binding signal (z-score) for SGC, Q9M345 (protein) QNLNFTYNGFHPPLTDISLQGLATVTPNGLLKLTNTSVQKTGHAFCTERIRFKDSQNGNVSSFSTTFVFAIHSQIPTLSGHGIAFVVAPTLGLPFALPSQYIGLFNISNNGNDTNHIFAVEFDTIQSSEFGDPNDNHVGIDLNGLRSANYSTAGYRDDHDKFQNLSLISRKRIQVWIDYDNRSHRIDVTVAPFDSDKPRKPLVSYVRDLSSILLEDMYVGFSSATGSVLSEHFLVGWSFRLNGEAPMLSLSKLPKLPRFEPRRIS
-0.501
